*1 amine or outer side, *2 acyl side, *3 side chain or, on linkers, in order; H or OH if unused. Where a SMILES comes first, the peptide text is derived from it. [ ]: non-standard residue; d: D form. X2 = O=C([C@]1(N[*:1])CCO[C@@H]1c1ccc(Br)cc1)[*:2]; X1 = O=C([C@@]1(N[*:1])CCO[C@H]1c1ccc(O)cc1)[*:2]; X3 = O=C([C@]1(N[*:1])CCO[C@@H]1c1ccc(O)cc1)[*:2]
Neurotensin receptor type 2 (Homo sapiens, UniProt O95665): reported log10 Ki for various compounds.
Sequence (O95665 whole entry): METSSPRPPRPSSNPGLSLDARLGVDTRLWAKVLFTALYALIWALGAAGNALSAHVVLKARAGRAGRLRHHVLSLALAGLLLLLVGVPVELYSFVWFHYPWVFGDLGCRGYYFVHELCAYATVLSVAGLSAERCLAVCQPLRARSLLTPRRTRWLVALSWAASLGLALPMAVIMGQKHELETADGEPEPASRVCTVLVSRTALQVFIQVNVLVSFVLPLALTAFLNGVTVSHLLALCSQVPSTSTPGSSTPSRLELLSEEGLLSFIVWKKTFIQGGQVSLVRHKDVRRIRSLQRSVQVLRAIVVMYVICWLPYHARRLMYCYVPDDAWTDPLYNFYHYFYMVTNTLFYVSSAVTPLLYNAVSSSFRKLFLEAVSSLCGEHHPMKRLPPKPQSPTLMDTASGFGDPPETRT
All values: log10 Ki [nM].

Below: 4 compounds and their reported log10 Ki.
compound: CC[C@H](C)[C@H](NC(=O)C1(NC(=O)[C@@H]2CCCN2C(=O)[C@H](CCCNC(=N)N)NC(=O)[C@@H](N)CCCNC(=N)N)CCOC1c1ccc(Br)cc1)C(=O)N[C@@H](CC(C)C)C(=O)O (stereo not given in full)
log10 Ki: 1.08
//
compound: CC(C)C[C@H](NC(=O)CNC(=O)C1(NC(=O)[C@@H]2CCCN2C(=O)[C@H](CCCCN)NC(=O)[C@@H](N)CCCCN)CCOC1c1ccc(Br)cc1)C(=O)O (stereo in doubt; 16-2)
log10 Ki: 3.29
//
compound: CC(C)C[C@H](NC(=O)CNC(=O)[C@]1(NC(=O)[C@@H]2CCCN2C(=O)[C@H](CCCNC(=N)N)NC(=O)[C@@H](N)CCCNC(=N)N)CCO[C@@H]1c1ccc(O)cc1)C(=O)O (H-RRP[X3]GL-OH)
log10 Ki: 2.85
//
compound: CC(C)C[C@H](NC(=O)CNC(=O)[C@@]1(NC(=O)[C@@H]2CCCN2C(=O)[C@H](CCCNC(=N)N)NC(=O)[C@@H](N)CCCNC(=N)N)CCO[C@H]1c1ccc(O)cc1)C(=O)O (H-RRP[X1]GL-OH)
log10 Ki: 1.46

Ask: Query log10 Ki on Neurotensin receptor type 2 (Homo sapiens, UniProt O95665) for CC[C@H](C)[C@H](NC(=O)[C@]1(NC(=O)[C@@H]2CCCN2C(=O)[C@H](CCCNC(=N)N)NC(=O)[C@@H](N)CCCCN)CCO[C@@H]1c1ccc(Br)cc1)C(=O)N[C@@H](CC(C)C)C(=O)O (H-KRP[X2]IL-OH)
Reply: 2.04

====

Molecular target: Neurotensin receptor type 1 (Homo sapiens, UniProt P30989)
Sequence (P30989 whole entry): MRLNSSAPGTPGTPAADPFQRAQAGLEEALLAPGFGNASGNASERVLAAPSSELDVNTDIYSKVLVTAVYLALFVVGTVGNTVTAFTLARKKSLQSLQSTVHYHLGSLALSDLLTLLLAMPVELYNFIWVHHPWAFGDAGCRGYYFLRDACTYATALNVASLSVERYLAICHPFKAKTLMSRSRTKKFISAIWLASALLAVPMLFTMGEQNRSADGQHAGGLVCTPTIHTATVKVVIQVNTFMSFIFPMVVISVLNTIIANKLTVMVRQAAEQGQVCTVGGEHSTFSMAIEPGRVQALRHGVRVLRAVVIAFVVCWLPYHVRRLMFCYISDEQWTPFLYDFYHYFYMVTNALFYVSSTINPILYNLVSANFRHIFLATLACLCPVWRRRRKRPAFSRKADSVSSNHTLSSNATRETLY
pKi: −log10 of the molar value. *1 amine or outer side, *2 acyl side, *3 side chain or, on linkers, in order; H or OH if unused. Where a SMILES comes first, the peptide text is derived from it. [ ]: non-standard residue; d: D form. X2 = O=C([C@]1(N[*:1])CCO[C@@H]1c1ccc(Br)cc1)[*:2]; X1 = O=C([C@@]1(N[*:1])CCO[C@H]1c1ccc(O)cc1)[*:2]; X3 = O=C([C@]1(N[*:1])CCO[C@@H]1c1ccc(O)cc1)[*:2]
Would you mind labelling by pKi? At or over 5 is condition met, under is condition not met.

Answered cases to consult:
molecule: CC(C)C[C@H](NC(=O)C1(NC(=O)[C@@H]2CCCN2C(=O)[C@H](CCCNC(=N)N)NC(=O)[C@@H](N)CCCNC(=N)N)CCOC1c1ccc(Br)cc1)C(=O)O (stereo in doubt; 10-2)
assigned category: condition not met

molecule: CC(C)C[C@H](NC(=O)CNC(=O)[C@]1(NC(=O)[C@@H]2CCCN2C(=O)[C@H](CCCNC(=N)N)NC(=O)[C@@H](N)CCCNC(=N)N)CCO[C@@H]1c1ccc(O)cc1)C(=O)O (H-RRP[X3]GL-OH)
assigned category: condition not met

molecule: CC(C)C[C@H](NC(=O)C1(NC(=O)[C@@H]2CCCN2C(=O)[C@H](CCCCN)NC(=O)[C@@H](N)CCCNC(=N)N)CCOC1c1ccc(Br)cc1)C(=O)O (stereo in doubt; 9-2)
assigned category: condition not met

molecule: CC(C)C[C@H](NC(=O)C1(NC(=O)[C@@H]2CCCN2C(=O)[C@H](CCCCN)NC(=O)[C@@H](N)CCCCN)CCOC1c1ccc(Br)cc1)C(=O)O (stereo in doubt; 7-1)
assigned category: condition not met

molecule: CC(C)C[C@H](NC(=O)C1(NC(=O)[C@@H]2CCCN2C(=O)[C@H](CCCNC(=N)N)NC(=O)[C@@H](N)CCCNC(=N)N)CCOC1c1ccc(Br)cc1)C(=O)O (stereo in doubt; 10-1)
assigned category: condition not met

Ask: For this molecule, is measured pKi 5 or higher? `CC[C@H](C)[C@H](NC(=O)[C@@H](Cc1ccc(Br)cc1)NC(=O)[C@@H]1CCCN1C(=O)[C@H](CCCCN)NC(=O)[C@@H](N)CCCCN)C(=O)N[C@@H](CC(C)C)C(=O)O`
Reply: condition met

Ask: Check if pKi >= 5 (inclusive). Item: CC[C@H](C)[C@H](NC(=O)[C@]1(NC(=O)[C@@H]2CCCN2C(=O)[C@H](CCCNC(=N)N)NC(=O)[C@@H](N)CCCCN)CCO[C@@H]1c1ccc(Br)cc1)C(=O)N[C@@H](CC(C)C)C(=O)O (H-KRP[X2]IL-OH)
Reply: condition met

Ask: Has `CC[C@H](C)[C@H](NC(=O)[C@H](Cc1ccc(Br)cc1)NC(=O)[C@@H]1CCCN1C(=O)[C@H](CCCCN)NC(=O)[C@@H](N)CCCCN)C(=O)N[C@@H](CC(C)C)C(=O)O` a recorded pKi greater than or equal to 5?
Reply: condition met

Ask: Dear colleague, could you confirm whether CC(C)C[C@H](NC(=O)CNC(=O)[C@@]1(NC(=O)[C@@H]2CCCN2C(=O)[C@H](CCCNC(=N)N)NC(=O)[C@@H](N)CCCNC(=N)N)CCO[C@H]1c1ccc(O)cc1)C(=O)O (H-RRP[X1]GL-OH) has pKi at or above 5?
Reply: condition not met

====

Biological target: UniProt:O95665
Listing of entries alongside the reported Ki.
Report only the number, with the unit µM understood.

Consider the worked cases shown below.
compound: CC(C)C[C@H](NC(=O)C1(NC(=O)[C@@H]2CCCN2C(=O)[C@H](CCCCN)NC(=O)[C@@H](N)CCCCN)CCOC1c1ccc(Br)cc1)C(=O)O (stereo in doubt; 7-1)
Ki (µM): 27

compound: CC[C@H](C)[C@H](NC(=O)[C@@H](Cc1ccc(Br)cc1)NC(=O)[C@@H]1CCCN1C(=O)[C@H](CCCCN)NC(=O)[C@@H](N)CCCCN)C(=O)N[C@@H](CC(C)C)C(=O)O
Ki (µM): 0.873

Then there is this compound:
Ask: Param readout= Ki; system= UniProt:O95665; entry= CC(C)C[C@H](NC(=O)C1(NC(=O)[C@@H]2CCCN2C(=O)[C@H](CCCNC(=N)N)NC(=O)[C@@H](N)CCCNC(=N)N)CCOC1c1ccc(Br)cc1)C(=O)O (stereo in doubt; 10-2) ; returns value.
Reply: 1.43
